Where these numbers come from: ChEMBL document CHEMBL3045802

tested on: NCI-H23; experiment: Cytotoxicity against Homo sapiens (human) NCI-H23 cells assessed as growth inhibition at 10 uM after 48 hr by coulter counter analysis; assay type: functional; conditions: NCI-H23, 48 h, read-out: GI
Metric Name: inhibition of growth at 10 µM (%)
Write the value in % as a bare number.

Please review the entries below; each comes with its answer.
CN(C)c1ccc(-c2nc3c(c(=O)[nH]2)C(c2ccc(Cl)cc2)C2=C(CCCC2)N3)cc1 (stereo unspecified)
12.4
COc1ccc(C2C3=C(CCCC3)Nc3ncn4nc(-c5ccccc5)nc4c32)cc1OC (stereo unspecified)
10.7
COc1ccc(C2C3=C(CCCC3)Nc3[nH]c(=S)nc(NC(N)=S)c32)cc1OC (stereo unspecified)
15.3

We now examine a further compound.
Form field inhibition of growth at 10 µM, entry Clc1ccc(C2C3=C(CCCC3)Nc3ncn4nc(-c5ccccc5)nc4c32)cc1 (stereo unspecified) : 11.7
